- EXPERIMENTAL_SYSTEM: T1, human PD-L1 Fc fusion (hPD-L1-Fc) (human, UniProt Q9NZQ7 19-238, limits assumed)
- T1 construct: not shown: Fc part
- T1 sequence (Q9NZQ7 19-238 limits assumed): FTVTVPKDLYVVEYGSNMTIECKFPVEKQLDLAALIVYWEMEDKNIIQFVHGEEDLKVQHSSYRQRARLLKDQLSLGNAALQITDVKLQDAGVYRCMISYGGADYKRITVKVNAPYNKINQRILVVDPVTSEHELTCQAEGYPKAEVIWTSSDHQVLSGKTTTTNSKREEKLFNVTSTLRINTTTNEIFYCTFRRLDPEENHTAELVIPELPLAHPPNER
- METHOD_NOTES: blocking ELISA: antibody titrated + biotin-hPD-1-Fc on coated hPD-L1-Fc
MEASURED_QUANTITY: IC50 (nM)
Report only the number, with the unit nM understood.

Task: Which IC50 value belongs to 769-hIgG1 (chimeric PAL769) (antibody, V domains shown) VH: EVQLQESGAELVKPGASVTLSCTASGFNIKDTYMHWVKQRPEQGLEWIGRIDPANDNTKYDPKFQDKATITADTSSDTAYLRLSSLTSEDTAVYYCAREGYGGSYGEGYWGQGTTLTVSS VL: SIVMTQTPKFLLVSAGDRVTITCKASQSVSNDVIWYQQKPGQSPKLLIYYASIRFTGVPDRFAGSGYGTDFTFTINTVQAEDLAVYFCQQDYNSPWTFGGGTKLEIK ?
Output: 1.6

Task: Which IC50 is reported for this binder? 752-hIgG1 (chimeric PAL752) (antibody, V domains shown) VH: EVQLQESGAELARPGASVKLSCKASGHAFTSDSINWVKQRIGQGLEWIGEIYPRSGNPYYNEKFKGKATLTADKSSSTAYMELRSLTSEDSAVYFCATDYYGRYFDVWGTGTTVTVSS VL: DIQMTQSSFSFSVSLGDRVTIICKASEDIYNRLAWYQQKPGNTPRLLISGATSLETGVPSRFSGSGSGKDYTLSITSLQTEDVATYYCQQYWSTPWTFGGGTKLEIK
Output: 4.6

Task: # IC50 lookup, item 785-hIgG1 (chimeric PAL785) (antibody, V domains shown) VH: EVQLQESGPELVKPGTSVKMSCKASGYTFTSYVMHWVKQRPGQGLEWIGYINPYNDGSKYNEKFKGKATLTSDTSSSTAYMELSSLTSEDSAVYYCAKQTLDFWGQGTSVTVST VL: DIVLTQSPASLAVSLGQRATISCRASESVEFYGTTLMQWYQQKPGQPPKLLIYAASNVESGVPARFSGSGSGTDFSLNIHPVEEGDIGMYFCQQSRKVPYTFGGGTKLEIK
Output: 1.9

Task: Value lookup for IC50; key = 788-hIgG1 (chimeric PAL788) (antibody, V domains shown) VH: QVQLQQPGAELVKPGASVKLSCKASGYTFTSNWMNWVKQRPGRGLEWIGRIHPSDSETHYHQKFKSKATLTVDKSSSTAYIQLSSLTSEDSAVYYCAHSSGDYGRDYWGQGTTLTVSS VL: NIVLTQSPASLAVSLGQRATISCRASESVDSYGNSFMHWYQQKPGQPPKLLIYLASNLQSGVPARFSGSGSRTDFTLTIDPVEADDAATYYCQQNNEDPWTFGGGTKLEIK
Output: 2.9
